# maps each entry to its normalized growth
ASSAY NAME: chemical genetic growth profiling, strain panel (AID 1159580);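 note: tested at 20 µM; growth read once vehicle control cultures reached saturation at 30 °C; 1 = growth at the plate median or of vehicle wells; lower values mean less growth of the strain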
RECORDED CONDITIONS: S. cerevisiae deletion strains, growth OD, locus YPL256C, strain CLN2, active compounds read low
Out of some 5,500 compounds screened, about 2,000 (36%) were called active. Not shown: some 18% with an inconclusive outcome. The list shows a part of the results.

{"COMPOUND": "CN(C)CCCN1c2ccccc2Sc2ccccc21", "normalized growth": 1.01}
{"COMPOUND": "CN(C)CCCN1c2ccccc2CCc2ccc(Cl)cc21", "normalized growth": 1.02}
{"COMPOUND": "O=C(CSC1=NNC(c2ccccn2)S1)Nc1ccccc1 (stereo not given)", "normalized growth": 1.03}
{"COMPOUND": "CN(C)CCCN1c2ccccc2CCc2ccccc21", "normalized growth": 0.972}
{"COMPOUND": "COC1CC2CCC(C)C(O)(O2)C(=O)C(=O)N2CCCCC2C(=O)OC(C(C)CC2CCC(O)C(OC)C2)CC(=O)C(C)/C=C(\\C)C(O)C(OC)C(=O)C(C)CC(C)/C=C/C=C/C=C/1C (stereo not given)", "normalized growth": 0.117}
{"COMPOUND": "COc1ccc(C2Sc3ccccc3N(CCN(C)C)C(=O)C2OC(C)=O)cc1 (stereo not given)", "normalized growth": 0.991}
{"COMPOUND": "N=C(N)N", "normalized growth": 1.07}
{"COMPOUND": "CC12CCC(=O)C=C1CCC1C2[C@@H](O)CC2(C)C1CC[C@]2(O)C(=O)COP(=O)(O)O (stereo not given in full)", "normalized growth": 0.957}
{"COMPOUND": "CN(C)CCCN1c2ccccc2Sc2ccc(C(F)(F)F)cc21", "normalized growth": 0.988}
{"COMPOUND": "CCOC(=O)[C@H](CCc1ccccc1)N[C@@H](C)C(=O)N1CCC[C@H]1C(=O)O", "normalized growth": 1.05}

====

ASSAY NAME: chemical genetic growth profiling, strain panel (AID 1159580);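 note: tested at 20 µM; growth read once vehicle control cultures reached saturation at 30 °C; 1 = growth at the plate median or of vehicle wells; lower values mean less growth of the strain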
RECORDED CONDITIONS: S. cerevisiae deletion strains, growth OD, locus YDR318W, strain mcm21, active compounds read low
Screen size: about 5,500 compounds; about 2,000 (36%) were called active. Roughly 18% stayed inconclusive and do not appear here. The list shows a part of the results.
OBSERVED PROPERTY: normalized growth

{"COMPOUND": "CC(C)CCCC(C)C1CCC2C3=CC[C@H]4C[C@@H](O)CC[C@]4(C)C3CC[C@@]21C (some centres not stated)", "RECORDED MEASUREMENT": 1.01}
{"COMPOUND": "CC(C)CCCC(C)C1CCC2C3CC(=O)[C@H]4C[C@@H](O)CC[C@]4(C)C3CC[C@]12C (some centres not stated)", "RECORDED MEASUREMENT": 1.01}
{"COMPOUND": "CC(C)CCCC(C)[C@H]1CCC2C3CC=C4C[C@@H](O)CC[C@]4(C)C3CC[C@@]21C (some centres not stated)", "RECORDED MEASUREMENT": 1.01}
{"COMPOUND": "CC(C)CCCC(C)[C@H]1CCC2C3CC=C4CC(=O)CC[C@]4(C)C3CC[C@@]21C (some centres not stated)", "RECORDED MEASUREMENT": 0.922}
{"COMPOUND": "CC(C)CCCC(C)C1CCC2C3C[C@@H](O)[C@@]4(O)C[C@@H](O)CC[C@]4(C)C3CC[C@]12C (some centres not stated)", "RECORDED MEASUREMENT": 1.02}
{"COMPOUND": "COC(=O)/C(=C1\\OC(=O)C(c2ccccc2)=C1O)c1ccccc1", "RECORDED MEASUREMENT": 0.986}
{"COMPOUND": "CC(C)=CC1C(C(=O)O)C1(C)C (configuration not stated)", "RECORDED MEASUREMENT": 0.977}

====

ASSAY NAME: chemical genetic growth profiling, strain panel (AID 1159580);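 note: tested at 20 µM; growth read once vehicle control cultures reached saturation at 30 °C; 1 = growth at the plate median or of vehicle wells; lower values mean less growth of the strain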
RECORDED CONDITIONS: S. cerevisiae deletion strains, growth OD, locus YLL026W, active compounds read low
Out of some 5,500 compounds screened, about 2,000 (36%) were called active. Inconclusive results (about 18%) are left out. The list shows a part of the results.
# maps each entry to its normalized growth

{"MOLECULE": "COC(=O)c1c(C)c2c(c(C)c1O)OC(=O)c1c(C)c(Cl)c(O)c(Cl)c1O2", "normalized growth": "0.975 (inactive)"}
{"MOLECULE": "CC(=O)O[C@@H]1C=C[C@@]2(C)C(C[C@@H](OC(C)=O)[C@@]3(C)C4=CC(=O)O[C@@H](c5ccoc5)[C@]4(C)CCC23)C1(C)C (stereo not given in full)", "normalized growth": "1.01 (inactive)"}
{"MOLECULE": "CN(C)CCCN1c2ccccc2Sc2ccc(Cl)cc21", "normalized growth": "0.0697 (active)"}
{"MOLECULE": "CN(C)CCCN1c2ccccc2Sc2ccccc21", "normalized growth": "0.98 (inactive)"}
{"MOLECULE": "Oc1cccc(O)c1", "normalized growth": "1.01 (inactive)"}
{"MOLECULE": "CCC(C)C(=O)OC1[C@@H]2CC3=C4CC(=O)O[C@@H](c5ccoc5)[C@]4(C)CCC3[C@@](C)(C2=O)[C@@H](CC(=O)OC)C1(C)C (stereo not given in full)", "normalized growth": "1 (inactive)"}
{"MOLECULE": "CS(=O)(=O)Nc1ccc([N+](=O)[O-])cc1Oc1ccccc1", "normalized growth": "0.993 (inactive)"}
{"MOLECULE": "COc1ccc(C2Sc3ccccc3N(CCN(C)C)C(=O)C2OC(C)=O)cc1 (stereo not given)", "normalized growth": "0.983 (inactive)"}
{"MOLECULE": "CN(C)CCCN1c2ccccc2CCc2ccc(Cl)cc21", "normalized growth": "0.982 (inactive)"}
{"MOLECULE": "CC(C)CCCC(C)C1CCC2C3C[C@@H](O)[C@@]4(O)C[C@@H](O)CC[C@]4(C)C3CC[C@]12C (stereo not given in full)", "normalized growth": "0.995 (inactive)"}
{"MOLECULE": "CS(=O)(=O)c1ccc([C@@H](O)[C@@H](CO)NC(=O)C(Cl)Cl)cc1", "normalized growth": "1.02 (inactive)"}
{"MOLECULE": "CC(=O)O[C@@H]1CC2C(C)(C)C(=O)C=C[C@]2(C)C2CC[C@]3(C)C(=CC(=O)O[C@H]3c3ccoc3)[C@@]21C (stereo not given in full)", "normalized growth": "1.02 (inactive)"}
{"MOLECULE": "COC(=O)c1c(OC)cc2c(c1C)Oc1c(Cl)c(O)c(Cl)c(C)c1C(=O)O2", "normalized growth": "0.983 (inactive)"}
{"MOLECULE": "CN(C)CCCN1c2ccccc2CCc2ccccc21", "normalized growth": "0.999 (inactive)"}
{"MOLECULE": "C/C1=C/CC(C)(C)/C=C/C/C(C)=C/CC1", "normalized growth": "0.99 (inactive)"}
{"MOLECULE": "CC(C)CCCC(C)[C@H]1CCC2C3CC=C4CC(=O)CC[C@]4(C)C3CC[C@@]21C (stereo not given in full)", "normalized growth": "0.988 (inactive)"}
{"MOLECULE": "CC(=O)O[C@@H]1CC2C(C)(C)[C@H](O)C=C[C@]2(C)C2CC[C@]3(C)C(=CC(=O)O[C@H]3c3ccoc3)[C@@]21C (stereo not given in full)", "normalized growth": "0.987 (inactive)"}
{"MOLECULE": "CN(C)CCCN1c2ccccc2Sc2ccc(C(F)(F)F)cc21", "normalized growth": "1 (inactive)"}
{"MOLECULE": "CCOC(=O)NNc1nncc2ccccc12", "normalized growth": "1 (inactive)"}
{"MOLECULE": "COC(=O)c1c(OC)cc2c(c1C)Oc1c(Cl)c(OC(C)=O)c(Cl)c(C)c1C(=O)O2", "normalized growth": "1 (inactive)"}

====

# maps each entry to its normalized growth
ASSAY NAME: chemical genetic growth profiling, strain panel (AID 1159580);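 note: tested at 20 µM; growth read once vehicle control cultures reached saturation at 30 °C; 1 = growth at the plate median or of vehicle wells; lower values mean less growth of the strain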
RECORDED CONDITIONS: S. cerevisiae deletion strains, growth OD, locus YNL271C, strain bni1, active compounds read low
Out of some 5,500 compounds screened, about 2,000 (36%) were called active. About 18% were inconclusive and are not listed. Some of the results follow.

{"COMPOUND": "CCCc1c(OCCCCc2nn[nH]n2)ccc(C(C)=O)c1O", "normalized growth": 0.997}
{"COMPOUND": "CC(C)=CC1C(C(=O)O)C1(C)C (stereo unspecified)", "normalized growth": 0.973}
{"COMPOUND": "CN(C)C1C(=O)C(C(N)=O)=C(O)C2(O)C(=O)C3=C(O)c4c(O)ccc(Cl)c4C(C)(O)C3CC12 (stereo unspecified)", "normalized growth": 0.998}
{"COMPOUND": "CC12CCC(O)CC1CCC1C2[C@H](O)CC2(C)C(C3=CC(=O)OC3)CCC12O (stereo partly specified)", "normalized growth": 0.995}
{"COMPOUND": "C=C1C[C@]23C[C@@]1(O)CC[C@H]2[C@@]12C=C[C@H](O)[C@@](C)(C(=O)O1)[C@H]2[C@@H]3C(=O)O", "normalized growth": 0.982}
{"COMPOUND": "CC(N=C(NC#N)Nc1ccncc1)C(C)(C)C (stereo unspecified)", "normalized growth": 1.02}
{"COMPOUND": "CC12CCC(=O)C=C1CCC1C2[C@@H](O)CC2(C)C1CC[C@]2(O)C(=O)COP(=O)(O)O (stereo partly specified)", "normalized growth": 1}
{"COMPOUND": "CC1=CC(=O)c2ccccc2C1=O", "normalized growth": 0.705}
{"COMPOUND": "CN[C@@H]1[C@H](O)[C@H](NC)[C@H]2O[C@@]3(O)C(=O)C[C@@H](C)O[C@H]3O[C@@H]2[C@H]1O", "normalized growth": 1.01}
{"COMPOUND": "CCCOc1ccc2nc(NC(=O)OC)[nH]c2c1", "normalized growth": 0.986}
{"COMPOUND": "COc1cc(C/C=C/c2ccccc2)c(OC)cc1O", "normalized growth": 0.926}

Data provenance: PubChem BioAssay AID1159580
